These measurements were taken from PubChem BioAssay AID1645864.

Target: UniProt A8MUK1
Sequence (A8MUK1 whole entry, looked up): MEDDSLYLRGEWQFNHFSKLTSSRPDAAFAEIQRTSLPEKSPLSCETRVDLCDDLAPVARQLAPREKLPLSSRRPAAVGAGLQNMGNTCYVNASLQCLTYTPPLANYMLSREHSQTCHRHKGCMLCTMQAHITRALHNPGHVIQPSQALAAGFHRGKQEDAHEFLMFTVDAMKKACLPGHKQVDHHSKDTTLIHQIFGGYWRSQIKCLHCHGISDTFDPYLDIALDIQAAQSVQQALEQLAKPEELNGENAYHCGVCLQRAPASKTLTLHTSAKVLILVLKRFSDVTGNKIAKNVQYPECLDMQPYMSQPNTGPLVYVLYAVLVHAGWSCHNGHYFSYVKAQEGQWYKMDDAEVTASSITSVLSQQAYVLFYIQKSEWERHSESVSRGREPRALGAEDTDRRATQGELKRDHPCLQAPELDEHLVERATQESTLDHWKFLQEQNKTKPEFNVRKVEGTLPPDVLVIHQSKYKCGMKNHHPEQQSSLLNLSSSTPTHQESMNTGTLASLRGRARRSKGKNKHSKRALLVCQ
Assay: ubiquitin-specific protease 17 DUB inhibitors, concentration-effect assay, cell-free, verification of initial screening actives (AID 1645864)
Conditions: purified USP17, ubiquitin-rhodamine cleavage fluorescence, 3 h
Calls of active or inactive are those of the source.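 Rule for the calls: active = maximal inhibition of USP17 at or above 30% in the confirmation dose-response, a value not among the printed readouts; inactive = the rest.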
Outcome codes: active, inactive

1. Cn1c2ccccc2c(=O)c2c(=O)n(Cc3ccccc3)c(-c3ccccc3F)nc21 : active
2. COc1cc(N)c(Cl)cc1C(=O)OCC(=O)c1ccc2c(c1)OCCO2 : inactive
3. O=C(Cn1c(=O)n(CC(=O)NC2CCCC2)c(=O)c2ccccc21)Nc1cc(Cl)ccc1Cl : active
4. O=C1CC(O)C(C2=CC(=O)c3c(O)cccc3C2=O)O1 (stereo not drawn) : active
5. COc1cccc(NC(=O)C2Cc3ccccc3N2C(=O)c2ccccc2)c1 (stereo not drawn) : active
6. Cc1nn(-c2nc3ccccc3[nH]2)c2c1C(c1cccs1)CC(=O)N2 (stereo not drawn) : inactive
7. CC1=C(C)C(N(c2ccccc2)c2ccccc2)N(CCC(C)C)C1=O (stereo not drawn) : active
8. CCOc1ccc(CCNC(=O)c2ccc3c(c2)N(CC)C(=O)c2ccccc2S3)cc1OCC : inactive
9. CN(C)S(=O)(=O)c1ccc(N2CCCC2)c(C(=O)Nc2ccc(-c3cn4ccsc4n3)cc2)c1 : inactive
10. CC(C)N1CC2CN(Cc3ccc(Cl)cc3)CCN2Cc2ccccc21 (stereo not drawn) : inactive
11. COc1ccccc1NC(=O)CSC1=NC2(CCCCC2)Nc2ccccc21 : inactive
12. O=C(Cn1cccc1-c1nc(-c2ccccc2)cs1)N1CCOCC1 : active
13. O=C(CSc1nc2ccncc2[nH]1)Nc1ccc(Br)cc1F : active
